measured.target: T1, Human PD-L1 full-length (human, UniProt Q9NZQ7 19-290)
T1 construct: also called PDL01021; CHOK1SV/huPDL1
T1 sequence (Q9NZQ7 19-290): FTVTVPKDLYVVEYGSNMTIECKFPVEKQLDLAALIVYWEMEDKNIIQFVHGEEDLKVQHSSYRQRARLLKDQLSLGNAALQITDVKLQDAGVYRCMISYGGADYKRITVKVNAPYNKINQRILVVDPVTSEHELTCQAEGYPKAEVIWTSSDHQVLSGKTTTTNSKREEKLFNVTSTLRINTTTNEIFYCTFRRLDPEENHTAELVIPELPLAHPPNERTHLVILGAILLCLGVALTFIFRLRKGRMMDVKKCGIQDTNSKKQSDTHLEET
assay.summary: MSD cell binding, CHOK1SV/human PD-L1 cells; x axis without printed unit

| binder | binding result |
| --- | --- |
| PDL01047 (Fc fusion, not shown: a dimerising Fc or GST; small tags and cut ends, also called 7A3-2LH x human IgG1 WT Fc) scFv: DVQITQSPSYLAASPGETITINCRASKSISKYLAWYQEKPGKTNKLLIYSGSTLQSGIPSRFSGSGSGTDFTLTISSLEPEDFAMYYCQQHNEYPFTFGAGTKLEIKGGGGSGGGGSGGGGSGGGGSEVQLQESGPSLVKPSQTLSLTCSVTGDSITSGYWNWIRKFPGNRLEYMGFRSYSGTTYYNPSLKSRISITRDTSKNQYYLQLNSVTTEDTATYYCARFSDFGSSENTMDYWGQGTSVTVSS | binds |
| PDL01049 (10B2LH x human IgG1 WT Fc) (Fc fusion, not shown: human IgG1 WT Fc) DIQMTQTTSSLSASLGDRVTISCRASQDIRNYLNWYQQKPDGTVKLLIYYTSRLQSGVPSRFSGSGSGTDYSLTITTLEQEDFATYFCQQGNMFPYTFGGGTKLEIKGGGGSGGGGSGGGGSGGGGSKVQLQQSGAEVVKPGASVKLSCKASGYNLTEYIIHWVKQRSGQGLEWIGWFYPGSGSIKYNEKFKDKATLTADKSSTTVYMDLSRLTSEDSAVYFCARHGLYYGFPYWGQGTSVTVSS | binds |
| PDL01042 (Fc fusion, also called 3G5LH x human IgG1 WT Fc; not shown: human IgG1 WT Fc (hinge-CH2-CH3) fused C-terminal to the scFv, and its junction) scFv: DIQMTQTTSSLSASLGDRVTISCSASQGIRNYLNWYQQKPDGTVKLLIYYTSTLHSGVPSRFSGSGSGTDYSLTISNLEPEDIATYYCQQYSKLPWTFGGGTRLEIKGGGGSGGGGSGGGGSGGGGSQIQLQQSGPELVKPGASVKISCKASGYTFTDYYINWVKQKPEQGLEWIGWTFPGSINTKYNEKFKGKATLTVDTSSSTAYMQLNSLTSEDTAVYFCARSPYEFDYWGQGTTLTVSS | binds |
